- measured_target: protein-protein interaction between Kras and SOS1 (biotin-tagged human Kras loaded with GDP, His-tagged human SOS1) (Homo sapiens (Human), UniProt P01116, G12D)
- experimental_details: Protein-protein interaction inhibition between Kras and SOS1 (KrasG12D-SOS PPI) using AlphaScreen;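 note: kras produced in E. coli, Ni-coupled donor beads and streptavidin acceptor beads, excitation 680 nm with emission detected at 520–620 nm via singlet oxygen transfer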
- Format: biochemical
- condition_summary: AlphaScreen; biotin-tagged human Kras loaded with GDP, His-tagged human SOS1; read-out: KRAS G12D-SOS PPI IC50
pIC50: −log10 of the molar value. Numbered stars: 1 amine (or outer) side, 2 acyl side, 3 side chain; on linkers, the order of the positions; unused ones are H or OH. Bridge positions count the residues as written; N and C are the ends. Square brackets hold non-standard residues; d marks the D form. Peptide text beside a SMILES is read from it. * marks the point of attachment. hPhe(3-Cl-4-CF3) = N[C@@H](CCc1ccc(C(F)(F)F)c(Cl)c1)C(=O)O; NMeCha = CN[C@@H](CC1CCCCC1)C(=O)O; NMeChg = CN[C@H](C(=O)O)C1CCCCC1; X12 = O=C(CN(CC1COC1)[*:1])[*:2]; NMeD = CN[C@@H](CC(=O)O)C(=O)O; NMeL = CN[C@@H](CC(C)C)C(=O)O; Piperidide = C1CCN(*)CC1; Ac5c = NC1(C(=O)O)CCCC1; Sar = CNCC(=O)O
reported_metric: pIC50

[
  {
    "compound": "CC[C@H](C)[C@@H]1NC(=O)[C@H](CC(C)C)N(C)C(=O)C[C@@H](C(=O)N2CCCCC2)N(C)C(=O)[C@H](C2CCCCC2)N(C)C(=O)C2(CCCC2)NC(=O)CN(CC2COC2)C(=O)[C@H](CCc2ccc(C(F)(F)F)c(Cl)c2)NC(=O)CN(C)C(=O)[C@H](CC2CCCCC2)N(C)C(=O)CN(C)C(=O)CN(C)C1=O [Compound 2031] ([NMeL]I[Sar][Sar][NMeCha][Sar][hPhe(3-Cl-4-CF3)][X12][Ac5c][NMeChg][NMeD]-Piperidide; lactam N-11 (inferred); C-terminus assumed)",
    "data_value": 9.09
  }
]
